Catalogue of binders with associated glycan array binding signal (z-score)
target: Neu5Ac(a2-6)Gal(b1-4)GlcNAc(b1-2)Man(a1-3)Man(b1-4)GlcNAc(b1-4)GlcNAc; experiment: glycan array binding signal (z-score within array); higher = stronger binding; settings: glycan notation: IUPAC condensed, linker removed
The sample as a whole holds a higher share of the strongest signals than the screen did.
Would you mind answering with just the numeric figure?

Below, 2 binders whose answers are already recorded.
Binder	glycan array binding signal (z-score)
CFEM-PPm (Pichia pastoris), F2QPV1 (protein) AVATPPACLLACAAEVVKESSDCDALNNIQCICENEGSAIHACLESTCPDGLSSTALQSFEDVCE	-0.215
PpFlo2 (Pichia pastoris) (protein) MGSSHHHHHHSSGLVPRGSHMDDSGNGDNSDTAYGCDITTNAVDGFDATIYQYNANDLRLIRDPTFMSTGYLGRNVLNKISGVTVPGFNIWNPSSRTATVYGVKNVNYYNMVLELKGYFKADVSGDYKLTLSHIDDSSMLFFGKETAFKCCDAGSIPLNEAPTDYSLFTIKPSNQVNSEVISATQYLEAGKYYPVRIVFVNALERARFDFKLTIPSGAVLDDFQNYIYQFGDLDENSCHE	-0.293

Turning now to a further binder:
q: What does the record list as glycan array binding signal (z-score) for Actd5 (Actinidia), P84527 (protein) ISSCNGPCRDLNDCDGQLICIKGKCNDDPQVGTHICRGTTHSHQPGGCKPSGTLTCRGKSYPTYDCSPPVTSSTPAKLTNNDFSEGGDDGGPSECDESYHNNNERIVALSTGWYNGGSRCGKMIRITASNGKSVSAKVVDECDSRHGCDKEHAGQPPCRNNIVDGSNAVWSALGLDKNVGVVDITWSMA ?
a: -0.071

The measurements presented in this section are drawn from the supplement of paper PMC8728848.
